# TARGET UNDER TEST: α4β1 (Homo sapiens, UniProt P05556+P13612)
# PROCEDURE TEXT: VCAM-Ig direct binding assay (DBA), Jurkat cells
# CONDITION SET: DBA IC50 Mn2+, Mn2+

MOLECULE	IC50, nM
Cc1ccccc1NC(=O)Nc1ccc(CC(=O)N(C)[C@@H](CC(C)C)C(=O)NCC[C@H](NC(=O)C2CCCN2S(=O)(=O)c2ccccc2)C(=O)O)cc1 (stereo partly shown) [Compound B]	1.2

----------
IC50 values, listed per item
# TARGET UNDER TEST: α4β1 (Homo sapiens, UniProt P05556+P13612)
# PROCEDURE TEXT: Equilibrium binding on Jurkat cells, competition with 35S-B as reporter
# CONDITION SET: IC50, buffer with 1 mM Ca2+ and 1 mM Mg2+, no plasma

MOLECULE	IC50 / nM
Cc1ccccc1NC(=O)Nc1ccc(CC(=O)N(C)[C@@H](CC(C)C)C(=O)NCC[C@H](NC(=O)[C@@H]2CCCN2S(=O)(=O)c2cc(Cl)cc(Cl)c2)C(=O)O)cc1	0.15
Cc1ccccc1NC(=O)Nc1ccc(CC(=O)N(C)[C@@H](CC(C)C)C(=O)NCC[C@H](NC(=O)[C@@H]2C[C@@H](N)CN2S(=O)(=O)c2ccccc2)C(=O)O)cc1	1.2
Cc1ccccc1NC(=O)Nc1ccc(CC(=O)N(C)C(CC(C)C)C(=O)NCCC(NC(=O)[C@@H]2C[C@H](NC(=O)CCCCCN)CN2S(=O)(=O)c2ccccc2)C(=O)O)cc1 (relative stereo)	1.5
Cc1ccccc1NC(=O)Nc1ccc(CC(=O)N(C)C(CC(C)C)C(=O)NCCC(NC(=O)[C@@H]2C[C@@H](NC(=O)CCCCCN)CN2S(=O)(=O)c2ccccc2)C(=O)O)cc1 (relative stereo)	1.4
Cc1ccccc1NC(=O)Nc1ccc(CC(=O)N(C)[C@@H](CCCCNC(=O)CCCCCN)C(=O)NCC[C@H](NC(=O)[C@@H]2CCCN2S(=O)(=O)c2ccccc2)C(=O)O)cc1	0.35
Cc1ccccc1NC(=O)Nc1ccc(CC(=O)N(C)[C@@H](CC(C)C)C(=O)NCC[C@H](NC(=O)C2CCCN2S(=O)(=O)c2ccccc2)C(=O)O)cc1 (stereo partly shown)	0.21
Cc1ccccc1NC(=O)Nc1ccc(CC(=O)N(C)[C@@H](CC(C)C)C(=O)NCC[C@H](NC(=O)[C@@H]2C[C@H](N)CN2S(=O)(=O)c2ccccc2)C(=O)O)cc1	3.5

----------
# PROCEDURE TEXT: Pharmacokinetics in female Lewis rats, noncompartmental analysis
# CONDITION SET: rat, in vivo, sc, 10 mg/kg
# Experimental: Blood samples (250 μL/bleed) were obtained at specific timepoints after administration. […] Serum samples were analyzed for compound H levels using an electrochemiluminescence assay. PK parameters were calculated from the […] data by noncompartmental analysis. […] Area under the curve (AUC) was calculated using the trapezoidal rule. Percent bioavailability was calculated from the following equation: (AUCextravascular/AUCIV)×(DoseIV/Doseextravascular)×100. […]
QUANTITY: half-life (h)

COMPOUND	QUANTITY	NUMBER
Cc1ccccc1NC(=O)Nc1ccc(CC(=O)N(C)[C@@H](CC(C)C)C(=O)NCC[C@H](NC(=O)[C@@H]2CCCN2S(=O)(=O)c2cc(Cl)cc(Cl)c2)C(=O)O)cc1 [Compound R]	half-life	2.7

----------
# PROCEDURE TEXT: Pharmacokinetics in female Lewis rats, noncompartmental analysis
# CONDITION SET: rat, in vivo, iv
QUANTITY: half-life (h)

MOLECULE	NUMBER
Cc1ccccc1NC(=O)Nc1ccc(CC(=O)N(C)[C@@H](CC(C)C)C(=O)NCC[C@H](NC(=O)C2CCCN2S(=O)(=O)c2ccccc2)C(=O)O)cc1 (stereo partly shown)	2.5

----------
# PROCEDURE TEXT: Pharmacokinetics in female Lewis rats, noncompartmental analysis
# CONDITION SET: rat, in vivo, iv, 1 mg/kg
QUANTITY: Tmax

> print(dat)
                                 mol.smiles  quantity  result
1  Cc1ccccc1NC(=O)Nc1ccc(CC(=O)N(C)[C@@H](CC(C)C)C(=O)NCC[C@H](NC(=O)[C@@H]2CCCN2S(=O)(=O)c2cc(Cl)cc(Cl)c2)C(=O)O)cc1      Tmax     0 h

----------
# TARGET UNDER TEST: α4β1 (Homo sapiens, UniProt P05556+P13612)
# PROCEDURE TEXT: Equilibrium binding on Jurkat cells, competition with 35S-B as reporter
# CONDITION SET: IC50(HP), 100% human plasma
pIC50: −log10 of the molar value.
pIC50 values, listed per item

MOLECULE	pIC50
Cc1ccccc1NC(=O)Nc1ccc(CC(=O)N(C)[C@@H](CC(C)C)C(=O)NCC[C@H](NC(=O)C2CCCN2S(=O)(=O)c2ccccc2)C(=O)O)cc1 (stereo partly shown)	8.82
Cc1ccccc1NC(=O)Nc1ccc(CC(=O)N(C)[C@@H](CC(C)C)C(=O)NCC[C@H](NC(=O)[C@@H]2C[C@@H](N)CN2S(=O)(=O)c2ccccc2)C(=O)O)cc1	8.68
Cc1ccccc1NC(=O)Nc1ccc(CC(=O)N(C)C(CC(C)C)C(=O)NCCC(NC(=O)[C@@H]2C[C@@H](NC(=O)CCCCCN)CN2S(=O)(=O)c2ccccc2)C(=O)O)cc1 (relative stereo)	8.64
Cc1ccccc1NC(=O)Nc1ccc(CC(=O)N(C)[C@@H](CCCCNC(=O)CCCCCN)C(=O)NCC[C@H](NC(=O)[C@@H]2CCCN2S(=O)(=O)c2ccccc2)C(=O)O)cc1	8.68

----------
# TARGET UNDER TEST: α4β1 (Homo sapiens, UniProt P05556+P13612)
# PROCEDURE TEXT: VCAM-Ig direct binding assay (DBA), Jurkat cells
# CONDITION SET: DBA IC50 100% rat plasma, 100% rat plasma
pIC50: −log10 of the molar value.
QUANTITY: pIC50

MOLECULE	NUMBER
Cc1ccccc1NC(=O)Nc1ccc(CC(=O)N(C)[C@@H](CC(C)C)C(=O)NCC[C@H](NC(=O)C2CCCN2S(=O)(=O)c2ccccc2)C(=O)O)cc1 (stereo partly shown) [Compound B]	7.89

----------
# TARGET UNDER TEST: α4β7 (Homo sapiens, UniProt P13612+P26010)
# Sequence (P13612 34-1032): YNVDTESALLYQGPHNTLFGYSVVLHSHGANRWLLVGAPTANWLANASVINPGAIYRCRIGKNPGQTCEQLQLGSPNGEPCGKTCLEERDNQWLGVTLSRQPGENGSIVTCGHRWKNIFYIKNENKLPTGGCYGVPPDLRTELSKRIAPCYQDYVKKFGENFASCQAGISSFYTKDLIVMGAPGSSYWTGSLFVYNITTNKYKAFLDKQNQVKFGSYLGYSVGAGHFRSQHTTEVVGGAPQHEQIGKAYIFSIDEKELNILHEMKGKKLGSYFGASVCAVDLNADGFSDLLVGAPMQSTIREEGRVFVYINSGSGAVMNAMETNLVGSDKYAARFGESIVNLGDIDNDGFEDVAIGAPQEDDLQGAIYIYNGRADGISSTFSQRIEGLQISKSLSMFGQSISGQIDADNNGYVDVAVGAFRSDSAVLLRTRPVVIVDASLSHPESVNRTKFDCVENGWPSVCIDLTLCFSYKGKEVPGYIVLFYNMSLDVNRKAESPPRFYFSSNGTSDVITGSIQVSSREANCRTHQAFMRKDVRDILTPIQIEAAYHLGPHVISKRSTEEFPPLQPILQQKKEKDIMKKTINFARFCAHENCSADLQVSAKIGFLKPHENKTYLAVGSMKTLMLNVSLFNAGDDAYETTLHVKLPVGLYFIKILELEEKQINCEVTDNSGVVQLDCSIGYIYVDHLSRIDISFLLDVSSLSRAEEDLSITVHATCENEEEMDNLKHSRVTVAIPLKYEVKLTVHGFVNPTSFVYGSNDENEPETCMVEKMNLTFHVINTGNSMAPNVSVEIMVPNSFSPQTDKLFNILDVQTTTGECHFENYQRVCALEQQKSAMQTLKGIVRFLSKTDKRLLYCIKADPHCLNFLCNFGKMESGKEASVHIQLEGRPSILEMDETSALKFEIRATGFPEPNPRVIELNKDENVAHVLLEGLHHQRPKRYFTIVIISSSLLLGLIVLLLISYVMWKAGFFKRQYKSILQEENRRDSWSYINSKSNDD
# Sequence (P26010 20-798): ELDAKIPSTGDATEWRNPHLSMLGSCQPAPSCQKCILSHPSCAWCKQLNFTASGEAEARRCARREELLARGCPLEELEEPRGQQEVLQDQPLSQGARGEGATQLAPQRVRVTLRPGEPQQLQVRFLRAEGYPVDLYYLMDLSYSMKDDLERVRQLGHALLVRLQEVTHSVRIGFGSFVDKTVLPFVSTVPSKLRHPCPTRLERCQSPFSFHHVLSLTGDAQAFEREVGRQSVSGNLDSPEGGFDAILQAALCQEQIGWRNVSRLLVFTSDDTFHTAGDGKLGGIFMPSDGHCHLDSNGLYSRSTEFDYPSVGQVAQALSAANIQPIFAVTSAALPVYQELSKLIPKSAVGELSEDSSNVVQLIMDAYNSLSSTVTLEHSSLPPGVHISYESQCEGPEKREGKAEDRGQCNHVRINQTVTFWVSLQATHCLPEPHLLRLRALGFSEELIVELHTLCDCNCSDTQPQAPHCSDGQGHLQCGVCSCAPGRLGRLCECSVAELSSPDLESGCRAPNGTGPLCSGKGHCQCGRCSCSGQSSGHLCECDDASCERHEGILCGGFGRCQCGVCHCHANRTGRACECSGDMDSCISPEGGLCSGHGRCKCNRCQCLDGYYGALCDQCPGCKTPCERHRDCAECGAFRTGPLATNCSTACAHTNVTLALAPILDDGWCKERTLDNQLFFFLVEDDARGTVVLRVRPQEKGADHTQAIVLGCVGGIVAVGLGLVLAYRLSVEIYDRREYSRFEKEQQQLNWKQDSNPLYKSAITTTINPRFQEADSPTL
# PROCEDURE TEXT: Direct binding assay for α4β7 (VCAM-Ig, JY cells)
# CONDITION SET: direct binding

COMPOUND	IC50
Cc1ccccc1NC(=O)Nc1ccc(CC(=O)N(C)[C@@H](CC(C)C)C(=O)NCC[C@H](NC(=O)C2CCCN2S(=O)(=O)c2ccccc2)C(=O)O)cc1 (stereo partly shown)	> 1000 nM

----------
# PROCEDURE TEXT: Pharmacokinetics in female Lewis rats, noncompartmental analysis
# CONDITION SET: rat, in vivo, sc
QUANTITY: bioavailability (%)

COMPOUND	NUMBER
Cc1ccccc1NC(=O)Nc1ccc(CC(=O)N(C)[C@@H](CC(C)C)C(=O)NCC[C@H](NC(=O)C2CCCN2S(=O)(=O)c2ccccc2)C(=O)O)cc1 (stereo partly shown) [Compound B]	21

----------
# TARGET UNDER TEST: α4β1 (Homo sapiens, UniProt P05556+P13612)
# PROCEDURE TEXT: Kinetic binding to α4β1 on Jurkat cells, competition with 35S-B as probe for free α4β1
# Set-up: endogenous in cells; host or cells: Jurkat human T-cell line
# CONDITION SET: Jurkat cells, 35S-B probe; read-out: kon/10^6
kon values, listed per item
QUANTITY: kon

MOLECULE	RESULT
Cc1ccccc1NC(=O)Nc1ccc(CC(=O)N(C)[C@@H](CC(C)C)C(=O)NCC[C@H](NC(=O)[C@@H]2C[C@H](N)CN2S(=O)(=O)c2ccccc2)C(=O)O)cc1 [F]	3.4e+06 M⁻¹ s⁻¹
Cc1ccccc1NC(=O)Nc1ccc(CC(=O)N(C)[C@@H](CC(C)C)C(=O)NCC[C@H](NC(=O)[C@@H]2CCCN2S(=O)(=O)c2cc(Cl)cc(Cl)c2)C(=O)O)cc1 [Compound R]	1.5e+06 M⁻¹ s⁻¹
Cc1ccccc1NC(=O)Nc1ccc(CC(=O)N(C)[C@@H](CC(C)C)C(=O)NCC[C@H](NC(=O)C2CCCN2S(=O)(=O)c2ccccc2)C(=O)O)cc1 (stereo partly shown) [Compound B]	4e+06 M⁻¹ s⁻¹
Cc1ccccc1NC(=O)Nc1ccc(CC(=O)N(C)[C@@H](CC(C)C)C(=O)NCC[C@H](NC(=O)[C@@H]2C[C@@H](N)CN2S(=O)(=O)c2ccccc2)C(=O)O)cc1 [C]	3e+06 M⁻¹ s⁻¹

----------
# TARGET UNDER TEST: α1β1 (Homo sapiens, UniProt P05556+P56199)
# Sequence (P56199 29-1179): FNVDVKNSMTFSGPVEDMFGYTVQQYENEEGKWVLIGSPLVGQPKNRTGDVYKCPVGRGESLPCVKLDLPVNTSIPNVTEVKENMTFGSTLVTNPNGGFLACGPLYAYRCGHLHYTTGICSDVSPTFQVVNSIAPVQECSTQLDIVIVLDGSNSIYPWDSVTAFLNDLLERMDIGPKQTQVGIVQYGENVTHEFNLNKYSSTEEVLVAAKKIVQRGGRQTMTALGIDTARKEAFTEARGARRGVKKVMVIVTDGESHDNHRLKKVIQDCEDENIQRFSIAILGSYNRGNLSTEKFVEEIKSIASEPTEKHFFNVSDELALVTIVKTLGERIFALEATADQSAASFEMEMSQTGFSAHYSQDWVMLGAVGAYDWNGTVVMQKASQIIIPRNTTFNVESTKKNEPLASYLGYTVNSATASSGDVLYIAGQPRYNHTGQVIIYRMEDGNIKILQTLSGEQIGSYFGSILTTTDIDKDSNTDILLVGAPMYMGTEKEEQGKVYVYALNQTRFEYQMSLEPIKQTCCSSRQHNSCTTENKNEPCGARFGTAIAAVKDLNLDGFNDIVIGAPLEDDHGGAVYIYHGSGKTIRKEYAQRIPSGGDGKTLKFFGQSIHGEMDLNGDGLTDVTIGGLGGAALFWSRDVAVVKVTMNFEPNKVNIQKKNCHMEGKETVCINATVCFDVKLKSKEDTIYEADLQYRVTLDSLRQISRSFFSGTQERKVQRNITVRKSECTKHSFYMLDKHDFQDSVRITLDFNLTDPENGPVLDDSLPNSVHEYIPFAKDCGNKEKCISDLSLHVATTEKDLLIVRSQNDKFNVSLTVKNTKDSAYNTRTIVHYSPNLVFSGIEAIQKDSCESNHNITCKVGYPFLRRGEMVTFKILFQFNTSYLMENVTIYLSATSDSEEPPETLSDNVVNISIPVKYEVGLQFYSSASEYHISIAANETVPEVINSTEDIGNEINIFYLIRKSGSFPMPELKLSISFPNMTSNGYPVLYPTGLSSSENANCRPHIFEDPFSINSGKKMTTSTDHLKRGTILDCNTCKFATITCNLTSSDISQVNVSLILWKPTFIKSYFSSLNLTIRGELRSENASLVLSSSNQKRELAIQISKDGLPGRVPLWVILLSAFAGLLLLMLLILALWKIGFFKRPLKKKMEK
# Sequence (P05556 21-798): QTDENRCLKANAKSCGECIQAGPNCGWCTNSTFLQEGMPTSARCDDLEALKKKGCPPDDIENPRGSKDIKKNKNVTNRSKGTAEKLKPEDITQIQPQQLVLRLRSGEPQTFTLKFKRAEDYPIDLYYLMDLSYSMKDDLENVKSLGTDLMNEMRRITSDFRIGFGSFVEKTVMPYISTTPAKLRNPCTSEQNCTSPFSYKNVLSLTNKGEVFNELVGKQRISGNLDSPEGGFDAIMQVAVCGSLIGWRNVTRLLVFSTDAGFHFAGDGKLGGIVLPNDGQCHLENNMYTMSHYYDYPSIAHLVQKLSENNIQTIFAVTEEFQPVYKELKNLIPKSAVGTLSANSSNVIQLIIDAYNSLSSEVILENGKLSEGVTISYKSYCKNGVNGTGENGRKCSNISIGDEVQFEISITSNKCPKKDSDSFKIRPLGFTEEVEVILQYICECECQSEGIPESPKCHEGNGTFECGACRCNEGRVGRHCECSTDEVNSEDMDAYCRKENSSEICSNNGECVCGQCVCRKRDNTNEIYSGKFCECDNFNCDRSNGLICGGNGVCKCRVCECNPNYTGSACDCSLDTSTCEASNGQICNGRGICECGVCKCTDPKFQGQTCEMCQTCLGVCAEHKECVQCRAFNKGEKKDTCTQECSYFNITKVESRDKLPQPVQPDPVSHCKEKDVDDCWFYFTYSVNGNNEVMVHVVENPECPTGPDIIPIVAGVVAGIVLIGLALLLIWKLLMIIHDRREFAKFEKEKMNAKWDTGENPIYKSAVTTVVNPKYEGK
# PROCEDURE TEXT: α1β1/collagen IV cell adhesion assay (K562 transfected with human α1-integrin chain)
# CONDITION SET: adhesion format, 1 mM MnCl2

COMPOUND	IC50
Cc1ccccc1NC(=O)Nc1ccc(CC(=O)N(C)[C@@H](CC(C)C)C(=O)NCC[C@H](NC(=O)C2CCCN2S(=O)(=O)c2ccccc2)C(=O)O)cc1 (stereo partly shown)	> 10 µM
